Provide the recorded IC50 for the entries that follow.
- System: Trypanosoma brucei brucei strain 427–221
- protocolText: Trypanosome screening assay (CellTiter-Glo ATP bioluminescence, 48 h)
- Format: cell-based
- runConditions: Trypanosoma brucei; text and Figures 1, 3; bloodstream form; read-out: IC50 against T. brucei brucei
One number for each entry, in µM.

Batch: IC50 for all items listed.
1. CC(C)(C)C(=O)O[C@@H]1CC[C@@]23C[C@@H]1OO[C@]2(C)C(=O)CCC3(C)C
2. CC(=O)O[C@@H]1CC[C@@]23C[C@@H]1OO[C@]2(C)C(=O)CCC3(C)C

A:
1: 8; 2: 14
